B1: Osa-1-4 twister ribozyme (parent)
chain: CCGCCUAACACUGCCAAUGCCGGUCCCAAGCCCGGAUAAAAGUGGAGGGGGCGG

Variants of: B1
assay name: self-cleavage, relative activity (ratio to wild type); higher = more cleavage; co-transcriptional
readout label: self-cleavage

- residue codes: "CCGCCUAAAACUGCCAAUGCCGGUCCCAAGCCCGGAUAAAAGUGGAGGGGGUGG [C52U C9A]"
  readout label: "self-cleavage"
  recorded number: 0.62
- residue codes: "CCGCCUAACACUGCCAAUGCCGGUCCCAAGCCCCGAUAAAAGUAGAGGGGGCGG [G34C G44A]"
  readout label: "self-cleavage"
  recorded number: 0.2
- residue codes: "CCGCCUAACACUGCCAAUGCCGGUCCCAAGCCCGUAUAAAAGUCGAGGGGGCGG [G35U G44C]"
  readout label: "self-cleavage"
  recorded number: 0.74
- residue codes: "CCGCCUAACACUGCCAAUGCCGGUCCCAAGCCCGGAUAAAUGUGGAGGGGGCGA [A41U G54A]"
  readout label: "self-cleavage"
  recorded number: 0.98
- residue codes: "CCGCCUAACACUGCCAAUGCCGGUCCCAAGCCCGGAUAAACGUGGAGGGCGCGG [A41C G50C]"
  readout label: "self-cleavage"
  recorded number: 0.93
- residue codes: "CCGCCUAACACUGCCAAUGCCGGUCCCAAGCCCGGAUCAAAGUGGAUGGGGCGG [A38C G47U]"
  readout label: "self-cleavage"
  recorded number: 0.22
- residue codes: "CCGCCUACCACUUCCAAUGCCGGUCCCAAGCCCGGAUAAAAGUGGAGGGGGCGG [A8C G13U]"
  readout label: "self-cleavage"
  recorded number: 0.01
- residue codes: "CCGCCUAAUACUGCCAAUGCCGGUCACAAGCCCGGAUAAAAGUGGAGGGGGCGG [C26A C9U]"
  readout label: "self-cleavage"
  recorded number: 0.03
- residue codes: "CCGCCUAACACUGCCAGUGCCGGUCCCAUGCCCGGAUAAAAGUGGAGGGGGCGG [A17G A29U]"
  readout label: "self-cleavage"
  recorded number: 0.27
- residue codes: "CCGCCUAACACUGCCGAUGCCGGUCCCAAGCCCGGAUAAAAGUGGCGGGGGCGG [A16G A46C]"
  readout label: "self-cleavage"
  recorded number: 0.15
